System: HeLa
experimentalDetails: Antiproliferative activity against human HeLa cells after 24 hrs by MTT assay
Format: functional
observedProperty: GI50 (µM)
Answers are plain numbers, in µM.

Here are 2 compounds together with their reported answers.
- CS(=O)(=O)c1ccc(N2N=C(C(F)(F)F)CC2c2cccc3c2OCCO3)cc1 (centres undefined): 26
- Cc1ccc(S(=O)(=O)N2N=C(C(F)(F)F)CC2c2ccc3c(c2)OCO3)cc1 (centres undefined): 28.7

Next, consider the following compound.
For the compound O=S(=O)(c1ccccc1)N1N=C(C(F)(F)F)CC1c1ccc2c(c1)OCO2 (centres undefined) , report GI50.
34.6

====

Kindly supply the reported GI50 values for the records listed here.
System: HeLa
experimentalDetails: Antiproliferative activity against human HeLa cells after 24 hrs by MTT assay
Format: functional
Give bare numbers, in µM.

* CS(=O)(=O)c1ccc(N2N=C(C(F)(F)F)CC2c2ccc3c(c2)OCO3)cc1 (stereo not given) | 27.6
* O=S(=O)(c1ccccc1)N1N=C(C(F)(F)F)CC1c1ccc2c(c1)OCCO2 (stereo not given) | 58.9
* CS(=O)(=O)c1ccc(N2N=C(C(F)(F)F)CC2c2ccc3c(c2)OCCO3)cc1 (stereo not given) | 23.5

Here are 4 compounds. What values of GI50 were reported for them?
1. NS(=O)(=O)c1ccc(N2N=C(C(F)(F)F)CC2c2ccc3ccccc3c2)cc1 (stereo not given)
2. NS(=O)(=O)c1ccc(N2N=C(C(F)(F)F)CC2c2cccc3ccccc23)cc1 (stereo not given)
3. CS(=O)(=O)c1ccc(N2N=C(C(F)(F)F)CC2c2cccc3ccccc23)cc1 (stereo not given)
4. Cc1ccc(S(=O)(=O)N2N=C(C(F)(F)F)CC2c2ccc3c(c2)OCCO3)cc1 (stereo not given)

[49.8, 29.5, 33.3, 24.8]

Here are 4 compounds. What values of GI50 were reported for them?
1. NS(=O)(=O)c1ccc(N2N=C(C(F)(F)F)CC2c2cccc3c2OCO3)cc1 (stereo not given)
2. CS(=O)(=O)c1ccc(N2N=C(C(F)(F)F)CC2c2ccc3ccccc3c2)cc1 (stereo not given)
3. NS(=O)(=O)c1ccc(N2N=C(C(F)(F)F)CC2c2ccc3c(c2)OCCO3)cc1 (stereo not given)
4. O=c1[nH]cc(F)c(=O)[nH]1

26.2
63.6
19.9
30.2

Here are 3 compounds. What values of GI50 were reported for them?
1. O=S(=O)(c1ccccc1)N1N=C(C(F)(F)F)CC1c1cccc2c1OCCO2 (stereo not given)
2. NS(=O)(=O)c1ccc(N2N=C(C(F)(F)F)CC2c2cccc3c2OCCO3)cc1 (stereo not given)
3. CS(=O)(=O)c1ccc(N2N=C(C(F)(F)F)CC2c2cccc3c2OCO3)cc1 (stereo not given)

1. 127
2. 26
3. 38.6

====

experimentalDetails: Inhibition of mouse B-Raf V600E mutant assessed as as reduction in human N-terminal His-tagged MEK1 phosphorylation pre-incubated with compound for 1 hr
Hi all, reminder that labels come from IC50, split as label 0 (below 900 nM), label 1 (900 nM to below 2000 nM), label 2 (2000 nM or more)

// known answers, use as guide
• Cc1ccc(S(=O)(=O)N2N=C(C(F)(F)F)CC2c2ccc3c(c2)OCO3)cc1 (stereo not given) = label 2
• NS(=O)(=O)c1ccc(N2N=C(C(F)(F)F)CC2c2ccc3c(c2)OCCO3)cc1 (stereo not given) = label 2
• CS(=O)(=O)c1ccc(N2N=C(C(F)(F)F)CC2c2cccc3c2OCO3)cc1 (stereo not given) = label 2
• NS(=O)(=O)c1ccc(N2N=C(C(F)(F)F)CC2c2cccc3c2OCCO3)cc1 (stereo not given) = label 0
• NS(=O)(=O)c1ccc(N2N=C(C(F)(F)F)CC2c2cccc3ccccc23)cc1 (stereo not given) = label 2

Which IC50 band matches O=S(=O)(c1ccccc1)N1N=C(C(F)(F)F)CC1c1ccc2ccccc2c1 (stereo not given) ?
label 2

Which IC50 band matches O=S(=O)(c1ccccc1)N1N=C(C(F)(F)F)CC1c1cccc2ccccc12 (stereo not given) ?
label 1

Which IC50 band matches O=S(=O)(c1ccccc1)N1N=C(C(F)(F)F)CC1c1ccc2c(c1)OCCO2 (stereo not given) ?
label 2

Which IC50 band matches Cc1ccc(S(=O)(=O)N2N=C(C(F)(F)F)CC2c2cccc3ccccc23)cc1 (stereo not given) ?
label 1

Which IC50 band matches O=S(=O)(c1ccccc1)N1N=C(C(F)(F)F)CC1c1cccc2c1OCO2 (stereo not given) ?
label 2

Which IC50 band matches CS(=O)(=O)c1ccc(N2N=C(C(F)(F)F)CC2c2ccc3c(c2)OCO3)cc1 (stereo not given) ?
label 0

Which IC50 band matches NS(=O)(=O)c1ccc(N2N=C(C(F)(F)F)CC2c2cccc3c2OCO3)cc1 (stereo not given) ?
label 1

Which IC50 band matches Cc1ccc(S(=O)(=O)N2N=C(C(F)(F)F)CC2c2cccc3c2OCCO3)cc1 (stereo not given) ?
label 1
